TGT: Muscarinic acetylcholine receptor M5 (Homo sapiens)
METHOD SUMMARY: M5 muscarinic receptor positive allosteric modulators, cell-based, single concentration, CHO-K1 hM5, calcium flux (AID 743100)
DETAILS: CHO-K1 hM5, Fluo-4 calcium flux, ACh EC20; at 10 µM unless noted
Calls of active or inactive are those of the source.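 How the source made its calls: active means calcium response above 60% of the acetylcholine maximum at human M5, as a positive modulator; inactive means the rest.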
Write down the outcome that applies. Available outcomes: active, inactive

State the result this test recorded for `CCN(Cc1ccccc1)C(=O)C1CCN(S(=O)(=O)c2ccc(N3CCOCC3)nc2)CC1` .
active

Now the molecule `CCN([C@H](C)c1ccccc1)S(=O)(=O)C1CCN(C(=O)c2ccc3[nH]ncc3c2)CC1`
inactive

Now the molecule `CCN(Cc1ccccc1C(F)(F)F)C(=O)C1CCN(S(=O)(=O)c2ccc(-n3cccn3)cc2)CC1`
active

Now the molecule `CCN(Cc1ccccc1)C(=O)C1CCN(S(=O)(=O)c2ccccc2C#N)CC1`
inactive

Now the molecule `CCN(Cc1ccccc1F)C(=O)C1CCN(S(=O)(=O)c2ccc3cn[nH]c3c2)CC1`
active

Now the molecule `CCN(Cc1ccccc1)C(=O)C1CCN(S(=O)(=O)c2ccccc2C(F)(F)F)CC1`
inactive

Now the molecule `CCN(Cc1ccccc1)C(=O)C1CCN(S(=O)(=O)c2ccc(C(F)(F)F)cc2)CC1`
active

Now the molecule `CCc1ccc(S(=O)(=O)N2CCC(C(=O)N(CC)Cc3ccccc3)CC2)cc1`
active

Now the molecule `CCN(Cc1cccc(C(F)(F)F)c1)C(=O)C1CCN(S(=O)(=O)c2ccc3cn[nH]c3c2)CC1`
inactive
